This collection of values is drawn from patent US20130079383A1.

Target: VLA-4 (Homo sapiens, UniProt P05556+P13612)
Construct: Jurkat cells express high levels of VLA-4 on their membrane surface
Sequence (P13612 34-1032): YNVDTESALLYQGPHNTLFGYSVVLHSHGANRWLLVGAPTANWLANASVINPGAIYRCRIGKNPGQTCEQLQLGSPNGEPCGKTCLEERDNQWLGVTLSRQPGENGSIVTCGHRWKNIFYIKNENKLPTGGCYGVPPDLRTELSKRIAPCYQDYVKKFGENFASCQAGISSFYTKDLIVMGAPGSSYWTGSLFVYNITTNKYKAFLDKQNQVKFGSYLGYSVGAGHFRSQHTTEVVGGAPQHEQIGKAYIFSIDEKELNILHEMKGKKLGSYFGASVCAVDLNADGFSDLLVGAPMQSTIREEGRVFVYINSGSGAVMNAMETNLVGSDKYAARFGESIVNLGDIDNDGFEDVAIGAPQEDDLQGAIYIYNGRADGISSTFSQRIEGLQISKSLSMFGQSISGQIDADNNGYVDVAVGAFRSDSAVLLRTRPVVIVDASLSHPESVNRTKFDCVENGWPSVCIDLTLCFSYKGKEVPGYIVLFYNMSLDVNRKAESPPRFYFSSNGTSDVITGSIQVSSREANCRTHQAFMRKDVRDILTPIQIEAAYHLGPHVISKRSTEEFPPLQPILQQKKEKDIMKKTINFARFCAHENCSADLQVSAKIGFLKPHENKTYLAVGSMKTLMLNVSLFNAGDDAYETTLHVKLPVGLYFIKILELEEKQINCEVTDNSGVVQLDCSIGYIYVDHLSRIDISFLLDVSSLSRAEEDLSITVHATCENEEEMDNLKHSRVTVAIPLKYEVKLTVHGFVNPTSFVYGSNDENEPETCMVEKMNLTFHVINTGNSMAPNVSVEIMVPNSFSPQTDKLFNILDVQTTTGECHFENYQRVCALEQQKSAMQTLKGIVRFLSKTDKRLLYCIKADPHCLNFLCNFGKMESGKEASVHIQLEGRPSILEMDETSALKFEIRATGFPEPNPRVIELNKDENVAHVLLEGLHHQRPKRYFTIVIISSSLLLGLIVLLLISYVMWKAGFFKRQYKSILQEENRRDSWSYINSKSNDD
Sequence (P05556 21-798): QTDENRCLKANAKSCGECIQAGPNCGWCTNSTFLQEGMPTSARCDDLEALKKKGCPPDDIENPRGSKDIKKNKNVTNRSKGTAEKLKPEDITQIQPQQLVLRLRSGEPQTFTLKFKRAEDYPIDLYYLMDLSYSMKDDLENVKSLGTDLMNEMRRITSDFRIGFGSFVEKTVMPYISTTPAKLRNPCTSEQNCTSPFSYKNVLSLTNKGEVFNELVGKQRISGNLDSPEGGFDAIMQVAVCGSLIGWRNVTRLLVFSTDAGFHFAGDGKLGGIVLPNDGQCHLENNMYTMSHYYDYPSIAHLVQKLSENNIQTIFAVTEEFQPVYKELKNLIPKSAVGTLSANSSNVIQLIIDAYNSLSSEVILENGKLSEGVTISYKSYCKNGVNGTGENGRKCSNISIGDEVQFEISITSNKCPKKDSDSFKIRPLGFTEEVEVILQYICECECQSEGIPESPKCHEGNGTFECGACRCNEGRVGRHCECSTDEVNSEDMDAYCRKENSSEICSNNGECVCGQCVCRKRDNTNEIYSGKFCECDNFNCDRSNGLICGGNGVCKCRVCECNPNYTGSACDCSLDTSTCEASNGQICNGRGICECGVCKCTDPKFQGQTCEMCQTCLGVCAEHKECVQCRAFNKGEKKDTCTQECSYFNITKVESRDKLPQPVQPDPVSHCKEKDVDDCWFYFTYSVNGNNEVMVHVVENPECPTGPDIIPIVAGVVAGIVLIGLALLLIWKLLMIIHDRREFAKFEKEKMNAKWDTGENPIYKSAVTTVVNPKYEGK
Assay: VLA-4/VCAM binding (adhesion) assay in Jurkat cells
Conditions: Jurkat cells activated with 0.5 mM Mn2+, VCAM-1-coated plates, 45 min at 37° C.
Where a name gives a salt, the structure may show the parent alone.

| molecule | test target | IC50, µM |
| --- | --- | --- |
| CCCCCCCCCCCCCCCCCCCCOCC(C[N+](C)(C)CCCNC(=O)CCOCCOCCOCCOCCOCCOCCOCCOCCOCCC(=O)NCCC1(C(=O)N[C@@H](Cc2ccc(NC(=O)c3c(Cl)cccc3Cl)cc2)C(=O)O)CCCC1)OCCCCCCCCCCCCCCCCCCCC (stereo partly shown) [Example 7] | VLA-4 (Homo sapiens, UniProt P05556+P13612) | 0.089 |
| CCCCCCCCCCCCCCCCOCC(C[N+](C)(C)CCCNC(=O)CCOCCOCCOCCOCCOCCOCCOCCOCCOCCC(=O)NCCC1(C(=O)N[C@@H](Cc2ccc(NC(=O)c3c(Cl)cccc3Cl)cc2)C(=O)O)CCCC1)OCCCCCCCCCCCCCCCC (stereo partly shown) [Example 3] | VLA-4 (Homo sapiens, UniProt P05556+P13612) | 1 |
| CCCCCCCCCCCCOCC(C[N+](C)(C)CCCNC(=O)CCOCCOCCOCCOCCOCCOCCOCCOCCOCCC(=O)NCCC1(C(=O)N[C@@H](Cc2ccc(NC(=O)c3c(Cl)cccc3Cl)cc2)C(=O)O)CCCC1)OCCCCCCCCCCCC (stereo partly shown) [Example 1, trifluoroacetate] | VLA-4 (Homo sapiens, UniProt P05556+P13612) | 0.587 |
| CCCCCCCCCCCCCCCCCCCCOCC(CN(C)CCCNC(=O)CCOCCOCCOCCOCCOCCOCCOCCOCCOCCC(=O)NCCC1(C(=O)N[C@@H](Cc2ccc(NC(=O)c3c(Cl)cccc3Cl)cc2)C(=O)O)CCCC1)OCCCCCCCCCCCCCCCCCCCC (stereo partly shown) [Example 8] | VLA-4 (Homo sapiens, UniProt P05556+P13612) | 1 |
